# Target system: T1, SHANK1, Q9Y566
# T1 sequence (Q9Y566 658-767, limits assumed, looked up): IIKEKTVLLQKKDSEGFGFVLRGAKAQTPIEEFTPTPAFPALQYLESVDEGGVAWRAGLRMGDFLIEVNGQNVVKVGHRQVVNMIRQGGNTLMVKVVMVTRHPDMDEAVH
# Experimental details: holdup assay
# Parameters: key: below the threshold = too weak to quantify, mostly under pKd 3.1 to 4
# Details: plain residues with an end cap or a label only (N-terminal biotin on a linker: ttds)
Measure name: pKd
Give only the figure.

Recorded result, DKDPHSETAL [TMIGD1, Q6UXZ0] , pKd: 4.42

Recorded result, NDPAWDETNL [ARHGEF7, Q14155;Q14155-1] , pKd: 4.79

Recorded result, PRVKPQRSKV [PPP1R13L, Q8WUF5] , pKd: 3.64

Recorded result, KKYVDAETSL [SLC4A7, Q9Y6M7] , pKd: 4.67

Recorded result, RHTTSTETAV [HPV30-E6, P36809] , pKd: 3.73

Recorded result, SSLQSLETSV [ATP2B4, P23634] , pKd: 3.94

Recorded result, PVRVCEETSL [OTULIN, Q96BN8] , pKd: 5.14
